# test-protocol: MRT in Sprague-Dawley rat at 5 mg/kg, iv measured for 3 to 1440 mins by HPLC analysis
# Type: ADME, organism-based
# condition-context: in vivo, time 3-1440 min
measured-endpoint: MRT (h)
Output spec: scalar in h, unitless text.

Prompt: Would you mind telling me what MRT value was observed for CCc1ccccc1NC(=O)c1cncc(-c2ccc(C(=O)N3CCNCC3)cc2)c1 ?
Completion: 1.97

###

# measured-on: CDK8/Cyclin C (Homo sapiens) (UniProt P49336+P24863)
# test-protocol: Inhibition of recombinant full length His tagged human CDK8/Cyclin C expressed in Baculovirus at 200 nM incubated for 60 mins in presence of ATP by ADP-Glo kinase assay
Would you mind labelling by inhibition? At or over 50% is Condition met, under is Condition not met.

Cc1cc(C)c(NC(=O)c2cc(O)cc(-c3ccc(C(=O)N4CCNCC4)cc3)c2)c(C)c1    Condition not met

Prompt: Please check the record CN1CCN(c2ccc(-c3cc(O)c4c(=O)cc(-c5ccccc5)oc4c3)cc2)CC1 and state if its inhibition is at or above 50%.
Completion: Condition not met

Prompt: Please check the record O=c1cc(-c2ccccc2)oc2cc(-c3ccc(OC(F)(F)F)cc3)cc(O)c12 and state if its inhibition is at or above 50%.
Completion: Condition not met

Prompt: Please check the record Nc1ccc(-c2cc(O)c3c(=O)cc(-c4ccccc4)oc3c2)cc1 and state if its inhibition is at or above 50%.
Completion: Condition met

Prompt: Please check the record CC(C)c1ccccc1NC(=O)c1cc(O)cc(-c2ccc(C(=O)N3CCNCC3)cc2)c1 and state if its inhibition is at or above 50%.
Completion: Condition met
